- assayRemarks: Pharmacokinetics in rats
- Type: in vivo
- assayContext: male, SD, rat, plasma, iv, i.v. (5 mg/kg), read-out: AUCINF_obs
attributeMeasured: AUC(0-inf) (ng·h/mL)
One number for each entry, in ng·h/mL.

INSERT INTO measurements (compound, scaleunit, reading) VALUES
  ('O=C(NCc1ccccc1)C(=O)[C@H](C[C@@H]1CCCNC1=O)NC(=O)[C@H](Cc1ccc(F)cc1)NC(=O)c1cc2ccccc2o1 [14a]', 'ng·h/mL', 4130);

Task item: What value of measured AUC(0-inf) is listed for O=C(NCc1ccccc1)C(=O)[C@H](C[C@@H]1CCCNC1=O)NC(=O)[C@H](CC1CCCCC1)NC(=O)c1cc2ccccc2o1 [14b] ?
Reply: 4250

* * *

Provide the reported MRT inf of each item.
- assayRemarks: Pharmacokinetics in rats
- Assay type: in vivo
- assayContext: male, SD, rat, plasma, iv, i.v. (5 mg/kg), read-out: MRTINF_obs
Numbers only, in h.

INSERT INTO results (compound, attributemeasured, reading) VALUES
  ('O=C(NCc1ccccc1)C(=O)[C@H](C[C@@H]1CCCNC1=O)NC(=O)[C@H](CC1CCCCC1)NC(=O)c1cc2ccccc2o1 [14b]', 'MRT inf', 1.94);

Now take the following compound into account.
Task item: What value of measured MRT inf is listed for O=C(NCc1ccccc1)C(=O)[C@H](C[C@@H]1CCCNC1=O)NC(=O)[C@H](Cc1ccc(F)cc1)NC(=O)c1cc2ccccc2o1 [14a] ?
Reply: 1.08

* * *

- assayRemarks: Pharmacokinetics in dogs
- Format: in vivo
- assayContext: male, Beagle, dog, plasma, po, p.o. (5 mg/kg), read-out: MRTINF_obs
attributeMeasured: MRT inf (h)
Give bare numbers, in h.

INSERT INTO assay_data (molecule, scaleunit, reading) VALUES
  ('O=C(NCc1ccccc1)C(=O)[C@H](C[C@@H]1CCCNC1=O)NC(=O)[C@H](Cc1ccc(F)cc1)NC(=O)c1cc2ccccc2o1 [14a]', 'h', 1.86);

Now take the following molecule into account.
Task item: What value of measured MRT inf is listed for O=C(NCc1ccccc1)C(=O)[C@H](C[C@@H]1CCCNC1=O)NC(=O)[C@H](CC1CCCCC1)NC(=O)c1cc2ccccc2o1 [14b] ?
Reply: 2.19

* * *

- assayRemarks: Pharmacokinetics in dogs
- Assay type: in vivo
- assayContext: male, Beagle, dog, plasma, iv, i.v. (1 mg/kg), read-out: AUCINF_obs
attributeMeasured: AUC(0-inf) (ng·h/mL)
Give bare numbers, in ng·h/mL.

INSERT INTO assay_data (molecule, attributemeasured, reading) VALUES
  ('O=C(NCc1ccccc1)C(=O)[C@H](C[C@@H]1CCCNC1=O)NC(=O)[C@H](CC1CCCCC1)NC(=O)c1cc2ccccc2o1 [14b]', 'AUC(0-inf)', 546);

Now take the following molecule into account.
Task item: What value of measured AUC(0-inf) is listed for O=C(NCc1ccccc1)C(=O)[C@H](C[C@@H]1CCCNC1=O)NC(=O)[C@H](Cc1ccc(F)cc1)NC(=O)c1cc2ccccc2o1 [14a] ?
Reply: 735

* * *

- targetEntity: Human CTSX (Homo sapiens)
- Sequence (Q9UBR2 62-303): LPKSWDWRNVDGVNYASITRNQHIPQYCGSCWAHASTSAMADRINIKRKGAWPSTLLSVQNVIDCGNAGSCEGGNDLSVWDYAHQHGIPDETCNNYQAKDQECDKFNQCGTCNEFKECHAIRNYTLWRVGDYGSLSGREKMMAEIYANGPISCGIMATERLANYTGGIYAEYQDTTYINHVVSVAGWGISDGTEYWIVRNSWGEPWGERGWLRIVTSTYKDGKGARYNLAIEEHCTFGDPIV
- assayRemarks: biochemical
- assayContext: read-out: IC50, Human CTSX
attributeMeasured: IC50 (µM)
Numbers only, in µM.

Task item: What value of measured IC50 is listed for O=C(NCc1ccccc1)C(=O)[C@H](C[C@@H]1CCCNC1=O)NC(=O)[C@H](CC1CCCCC1)NC(=O)c1cc2ccccc2o1 [14b] ?
Reply: 1.31
